- experimental target: Epidermal growth factor receptor (Homo sapiens, UniProt P00533)
- Sequence (P00533 whole entry): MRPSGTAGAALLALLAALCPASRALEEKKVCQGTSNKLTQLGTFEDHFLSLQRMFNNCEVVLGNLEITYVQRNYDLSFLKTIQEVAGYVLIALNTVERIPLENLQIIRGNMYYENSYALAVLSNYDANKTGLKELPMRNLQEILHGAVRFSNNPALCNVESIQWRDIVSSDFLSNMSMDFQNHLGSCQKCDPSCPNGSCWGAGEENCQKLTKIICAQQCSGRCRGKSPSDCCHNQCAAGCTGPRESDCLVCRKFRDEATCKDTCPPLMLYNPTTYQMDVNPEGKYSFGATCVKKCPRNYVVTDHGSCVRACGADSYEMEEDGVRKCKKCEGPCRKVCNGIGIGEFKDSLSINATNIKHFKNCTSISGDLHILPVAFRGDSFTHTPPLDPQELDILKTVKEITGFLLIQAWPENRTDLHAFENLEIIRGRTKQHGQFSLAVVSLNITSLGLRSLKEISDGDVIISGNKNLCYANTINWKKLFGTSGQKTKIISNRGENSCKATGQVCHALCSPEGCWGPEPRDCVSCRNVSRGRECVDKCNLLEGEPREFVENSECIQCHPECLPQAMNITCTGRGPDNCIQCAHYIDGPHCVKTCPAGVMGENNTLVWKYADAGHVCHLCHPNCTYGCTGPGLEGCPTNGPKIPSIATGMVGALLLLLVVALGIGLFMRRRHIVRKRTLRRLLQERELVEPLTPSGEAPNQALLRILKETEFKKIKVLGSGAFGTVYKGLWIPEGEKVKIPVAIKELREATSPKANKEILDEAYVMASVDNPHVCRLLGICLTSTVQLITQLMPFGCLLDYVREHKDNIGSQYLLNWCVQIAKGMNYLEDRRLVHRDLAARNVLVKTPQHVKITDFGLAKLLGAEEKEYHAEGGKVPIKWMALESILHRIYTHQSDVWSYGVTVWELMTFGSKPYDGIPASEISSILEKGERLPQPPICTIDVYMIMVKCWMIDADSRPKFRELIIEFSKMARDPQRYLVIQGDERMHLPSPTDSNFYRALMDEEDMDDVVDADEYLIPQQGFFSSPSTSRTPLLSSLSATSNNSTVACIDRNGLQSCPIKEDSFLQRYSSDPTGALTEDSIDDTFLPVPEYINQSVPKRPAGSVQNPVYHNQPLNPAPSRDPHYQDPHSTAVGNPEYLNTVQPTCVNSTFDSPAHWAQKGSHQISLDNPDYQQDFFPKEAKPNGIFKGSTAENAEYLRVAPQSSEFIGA
assay readout: IC50 (nM)
Give just the numeric value; nM need not be written.

System Epidermal growth factor receptor (Homo sapiens, UniProt P00533). Read-out IC50. Item Cc1ncnc(Nc2ccc(OCc3cccc(F)c3)c(Cl)c2)c1C#Cc1ccc(CNC(C)C)cc1 . Report value.
3

System Epidermal growth factor receptor (Homo sapiens, UniProt P00533). Read-out IC50. Item Cc1ncnc(Nc2ccc(OCc3cccc(F)c3)c(Cl)c2)c1C#Cc1ccc(CN(C)C)cc1 . Report value.
7

---

- assay: Metabolic stability of the compound in rat liver microsomes assessed as compound remaining after 30 mins
- Assay type: ADME, Microsome
- cond: read-out: Stability
assay readout: remaining at 0.5 h
Give the number first and the unit second.

Kindly indicate its recorded remaining at 0.5 h. Item: Cc1ncnc(Nc2ccc(OCc3cccc(F)c3)c(Cl)c2)c1C#Cc1ccc(CN2CCCC2)c(F)c1
63%

The values you see were collected from ChEMBL document CHEMBL1933060.
